- Target Or System: dopamine D1 receptor (Homo sapiens, UniProt P21728)
- Sequence (P21728 whole entry, species assumed): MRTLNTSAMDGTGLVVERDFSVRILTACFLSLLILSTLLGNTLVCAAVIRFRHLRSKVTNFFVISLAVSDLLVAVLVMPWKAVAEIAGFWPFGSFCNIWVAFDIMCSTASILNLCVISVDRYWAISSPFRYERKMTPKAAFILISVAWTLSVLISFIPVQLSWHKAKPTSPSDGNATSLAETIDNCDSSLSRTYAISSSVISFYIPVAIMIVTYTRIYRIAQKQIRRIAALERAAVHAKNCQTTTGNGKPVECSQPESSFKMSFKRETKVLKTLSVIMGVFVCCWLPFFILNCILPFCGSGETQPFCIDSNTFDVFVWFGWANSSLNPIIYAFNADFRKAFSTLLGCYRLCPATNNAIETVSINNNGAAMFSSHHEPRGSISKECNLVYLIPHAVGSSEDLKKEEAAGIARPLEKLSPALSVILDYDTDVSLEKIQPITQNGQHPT
- Experiment Description: CNS Receptor Binding Assay, dopamine D1
- Recorded Conditions: PART I - TABLE I; test compounds at 1 microMolar concentration; standard SCH 23390
Metric Name: Dopamine - D1 % inhibition (%)

CCCN1CCC2Cc3cccc(C(N)=O)c3C2CC1 (single isomer, unassigned) [compound 4] : 0
CCCN1CCC2Cc3c(C(N)=O)cccc3C2CC1 (single isomer, unassigned) [compound 5] : 10

I. CCCN1CCC2Cc3c(C#N)cccc3C2CC1 (single isomer, unassigned)
II. CCCN1CCC2Cc3c(C(N)=O)cccc3C2CC1 (single isomer, unassigned) [compound 6]
Lab notebook, comparison: I versus II , higher Dopamine - D1 % inhibition goes to which? Mark your answer with the label of the selected entry.
II
